TEST_SUMMARY: yeast display, Sf9 membrane polyspecificity reagent, FACS + sequencing; frameworks hold sequencing errors
MEASURED_PROPERTY: polyreactivity (PSR sort gate)

Illustrative cases are given below, each with its answer.
INSERT INTO assay_data (query_sequence, assay_result) VALUES
  ('QVQLVESGGGLVQAGGSLRLSCAASGITFHWYAMGWYRQAPGKERELVAAITSSGDSTFYADSVKGRFTISRDNAKNSVYLQMNSLKPEDTAVYYCAVDVYVGYWGRLYYWGQGTQVTVSS', 'low polyreactivity'),
  ('QVQLVESGGGIVQAGGSLRLSCAASGNIFSYYAMGWYRQAPGKERELVAAITYRSDSTYYADSVKGRFTISRDNAKNTVYLQMNSLKPEDTAVYYCATEPWYGWGFGYWGQGTQVTVSS', 'low polyreactivity'),
  ('QVQLVESGGGLVQAGGSLRLSCAASGRTFYRYAMGWYRQAPGKERELVAAITRRGDSTSYADSVKGRFTISRDNAKNTVYLQMNSLKPEDTAVYYCATLVQGSVYGLYGGGYWGQGTQVTVSS', 'low polyreactivity'),
  ('QVQLVESGGGLVQAGGSVRLSCAASGSTFLYNAMGWYRQAPGKEREVVAGIRRSGGSTYYADSVKGRFTISRANAKNTVYLQMNSLKPEDTAVYYCAVVPAMYRYRVVTYAYDYWGQGTQVNVSS', 'low polyreactivity'),
  ('QVQLVESGGGLVQAGGSLRLSCAASVFTFLYYAMGWYRQAPGKERELVAAISSTGGTTYYADSVKGRFTISRDNAKNTVYLQMNSLKPEDTAVYYCAADQGVYRTYWFDYWGQGTQVTVSS', 'high polyreactivity'),
  ('QVQLVESWGGLVQSGGSLRLSCAASGFTFGHNAMGWYIQAPGKERELVAAIDTSGGSTYYADSVKGRFTISRDNEKNTVYLKMNSLKPEDTAVYYCAAFSASYGGYDYWGQGTQVTVSS', 'high polyreactivity');

For the sequence QVQLVESGGGLVQAGGSLRLSCAASGINNSVNDMGLYRQAPGKERELVAAISSGDSTNYADSVKGRFTISRDNAKNTVYLQMNSLKPEDTAGYYCAALEGCLTGWQTYDYWGQGTQVTVSS , report polyreactivity (PSR sort gate).
low polyreactivity

Return polyreactivity (PSR sort gate) (reported value) for this sequence: QVQLVESGGGLVQAGGSLRLSCAASGSTFGRNAMGWYRQAPGKERELVAAINWSDGSTHYADSVKGRFTISRDNAKNTVYLQMNSLKPEDTAVYYCGADAWSWPVDYNYWGQGTQVTVSS
low polyreactivity

Indicate its recorded polyreactivity (PSR sort gate); the sequence in question is QVQLVESGGGLVQAGGSLRLSCAASGRIFWRNALGWYRQAPGKERELVAAITYSGGSTYYADSVKGRFTISRDNAKNTVYVQMNSLNPEDTAVYYCNTVEGWRYYGQSLYAYYYWGQGTQVTVSS
high polyreactivity

Look up and state reported polyreactivity (PSR sort gate) for QVQLVESGGGLVQAGGSLRLSCDASGRTFRFNDGGWYRQAPVKERELVAAITYRGGSTYYPDSVKGRFTISRDNAKNTVYLQMNSLKPDDTAVYYCAADYFWSRTQEFDYWGQGSQVTVSS
high polyreactivity

Specify measured polyreactivity (PSR sort gate) for QVQLVESGGGLVQAGGSLRLSCAASGFTFSSNVMGWYRQAPGKERELVAAISTSGDGSTYYADSVKGRFTISRDNAKNTVYLQMNSLIPEDTAVYYCAAEYPDEDGVYEYDSWGQGTQVTVSS .
low polyreactivity
